Catalogue of molecules with associated pIC50
- target-of-assay: human recombinant aldose reductase (HRAR) (Homo sapiens, UniProt P15121)
- method: HRAR inhibition assay (NADPH absorption decrease, DL-glyceraldehyde substrate)
Note on units: pIC50 is unitless, being -log10 of a concentration expressed in mol/L.

O=C(O)Cn1c(=O)n(Cc2ccc(Br)cc2F)c(=O)c2ccc(Cl)cc21 [Zenarestat, zenarestat, reference compound]	6.20

Item under review: O=Cc1cc2ccc(=O)oc2cc1O . Reported pIC50?
5.29

----------
- target-of-assay: PTP1B (human recombinant) (Homo sapiens)
- Construct: purchased Biomol International LP (Plymouth Meeting, PA, USA)
- Sequence (P18031 whole entry): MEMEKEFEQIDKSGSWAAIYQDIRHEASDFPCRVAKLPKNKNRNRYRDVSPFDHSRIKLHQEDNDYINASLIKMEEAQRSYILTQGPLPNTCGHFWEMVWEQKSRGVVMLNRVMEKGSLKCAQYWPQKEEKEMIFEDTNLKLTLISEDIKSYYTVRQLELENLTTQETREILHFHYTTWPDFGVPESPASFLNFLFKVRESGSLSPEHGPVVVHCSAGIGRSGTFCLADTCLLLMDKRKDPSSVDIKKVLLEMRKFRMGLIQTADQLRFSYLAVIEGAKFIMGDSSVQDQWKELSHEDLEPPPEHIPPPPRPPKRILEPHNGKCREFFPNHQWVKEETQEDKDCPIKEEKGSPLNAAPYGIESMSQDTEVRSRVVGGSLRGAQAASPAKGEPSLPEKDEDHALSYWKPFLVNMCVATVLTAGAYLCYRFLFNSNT
- method: PTP1B inhibition assay using pNPP
- Type: biochemical
reported-property: Ki (nM)
Return type: number; implicit unit nM.

Item under review: O=Cc1cc2ccc(=O)oc2cc1O . Reported Ki?
1720

----------
- target-of-assay: human recombinant aldose reductase (HRAR) (Homo sapiens, UniProt P15121)
- method: HRAR inhibition assay (NADPH absorption decrease, DL-glyceraldehyde substrate)
reported-property: Ki (µM)
Return type: number; implicit unit µM.

Item under review: O=Cc1cc2ccc(=O)oc2cc1O . Reported Ki?
4.87

Cited source for all entries: paper PMC9458250
